- System: HepG2
- protocol-summary: Acute toxicity in human HepG2 cells at IC50 after 6 hrs by formazan test
- Format: cell-based
- assay-context: hepg2, 6 h
measured-metric: Activity

# compound, Activity
data = [
    ("CCC(C)O[C@H]1O[C@@H]2O[C@@]3(C)CC[C@H]4[C@H](C)CC[C@@H]([C@H]1C)[C@@]24OO3 (stereo partly specified)", "Non-toxic"),
    ("C[C@H]1[C@H](OC(=O)CCC(=O)O)O[C@@H]2O[C@@]3(C)CC[C@H]4[C@H](C)CC[C@@H]1[C@@]24OO3 [ARTESUNATE]", "Toxic"),
    ("C[C@H]1[C@@H](OC(=O)C(C)(C)C)O[C@@H]2O[C@@]3(C)CC[C@H]4[C@H](C)CC[C@@H]1[C@@]24OO3", "Non-toxic"),
    ("CC(=O)O[C@H]1O[C@@H]2O[C@@]3(C)CC[C@H]4[C@H](C)CC[C@@H]([C@H]1C)[C@@]24OO3", "Non-toxic"),
    ("CCCC(CCC)C(=O)O[C@H]1O[C@@H]2O[C@@]3(C)CC[C@H]4[C@H](C)CC[C@@H]([C@H]1C)[C@@]24OO3", "Non-toxic"),
]

**Q:** Query Activity on HepG2 for CCCC(=O)O[C@H]1O[C@@H]2O[C@@]3(C)CC[C@H]4[C@H](C)CC[C@@H]([C@H]1C)[C@@]24OO3
**A:** Non-toxic

* * *

- protocol-summary: Acute toxicity in bovine EBTr cells infected with BVDV assessed as reduction in cell viability at 50 uM after 72 hrs
- Assay type: cell-based, Bos taurus
- assay-context: cattle
measured-metric: Activity

Please review the following examples before continuing.
# compound, Activity
records = [
    ("C[C@H]1[C@@H](OC(=O)C(C)(C)C)O[C@@H]2O[C@@]3(C)CC[C@H]4[C@H](C)CC[C@@H]1[C@@]24OO3", "Toxic"),
    ("C[C@H]1[C@@H](OC(=O)C(F)(F)C(F)(F)F)O[C@@H]2O[C@@]3(C)CC[C@H]4[C@H](C)CC[C@@H]1[C@@]24OO3", "Non-toxic"),
    ("CC(=O)O[C@H]1O[C@@H]2O[C@@]3(C)CC[C@H]4[C@H](C)CC[C@@H]([C@H]1C)[C@@]24OO3", "Non-toxic"),
    ("CC1=CO[C@@H]2O[C@]3(C)CC[C@H]4[C@H](C)CC[C@@H]1[C@@]24OO3 [ANHYDRODIHYDROARTEMISININ]", "Non-toxic"),
    ("CCCC(=O)O[C@H]1O[C@@H]2O[C@@]3(C)CC[C@H]4[C@H](C)CC[C@@H]([C@H]1C)[C@@]24OO3", "Non-toxic"),
    ("C[C@H]1[C@@H](O)O[C@@H]2O[C@@]3(C)CC[C@H]4[C@H](C)CC[C@@H]1[C@@]24OO3", "Toxic"),
    ("CCCC(CCC)C(=O)O[C@H]1O[C@@H]2O[C@@]3(C)CC[C@H]4[C@H](C)CC[C@@H]([C@H]1C)[C@@]24OO3", "Toxic"),
    ("CCC(C)O[C@H]1O[C@@H]2O[C@@]3(C)CC[C@H]4[C@H](C)CC[C@@H]([C@H]1C)[C@@]24OO3 (some centres undefined)", "Toxic"),
]

# context switch: different compound, same Activity
**Q:** So what does the record say about Activity for C[C@H]1[C@@H](OC(=O)N(C)C)O[C@@H]2O[C@@]3(C)CC[C@H]4[C@H](C)CC[C@@H]1[C@@]24OO3 ?
**A:** Non-toxic

* * *

- Test system: SK-HEP1
- protocol-summary: Acute toxicity in human SKHEP1 cells at IC50 after 6 hrs by formazan test
- Type: cell-based
- assay-context: sk-hep1, 6 h
measured-metric: Activity

Please review the following examples before continuing.
# compound, measured-target, Activity
records = [
    ("CCC(C)O[C@H]1O[C@@H]2O[C@@]3(C)CC[C@H]4[C@H](C)CC[C@@H]([C@H]1C)[C@@]24OO3 (stereo partly specified)", "SK-HEP1", "Non-toxic"),
    ("CC(=O)O[C@H]1O[C@@H]2O[C@@]3(C)CC[C@H]4[C@H](C)CC[C@@H]([C@H]1C)[C@@]24OO3", "SK-HEP1", "Non-toxic"),
    ("C[C@H]1[C@@H](OC(=O)C(C)(C)C)O[C@@H]2O[C@@]3(C)CC[C@H]4[C@H](C)CC[C@@H]1[C@@]24OO3", "SK-HEP1", "Non-toxic"),
    ("CCCC(CCC)C(=O)O[C@H]1O[C@@H]2O[C@@]3(C)CC[C@H]4[C@H](C)CC[C@@H]([C@H]1C)[C@@]24OO3", "SK-HEP1", "Non-toxic"),
    ("CCCC(=O)O[C@H]1O[C@@H]2O[C@@]3(C)CC[C@H]4[C@H](C)CC[C@@H]([C@H]1C)[C@@]24OO3", "SK-HEP1", "Non-toxic"),
]

**Q:** So what does the record say about Activity for C[C@H]1[C@H](OC(=O)CCC(=O)O)O[C@@H]2O[C@@]3(C)CC[C@H]4[C@H](C)CC[C@@H]1[C@@]24OO3 [ARTESUNATE] ?
**A:** Toxic

* * *

- Test system: Bovine viral diarrhea virus strain Oregon C24V
- protocol-summary: Antiviral activity against Bovine viral diarrhea virus Oregon C24V genotype 1 […] assessed as reduction in viral RNA release at 50 uM by RT-PCR analysis
- Type: functional
Calls of active or inactive are those of the source. The rule behind the calls is not given here.
In this exercise, the only acceptable responses are True for active, False for inactive

**Q:** # fetch the recorded call for C[C@H]1[C@@H](OC(=O)C(F)(F)C(F)(F)F)O[C@@H]2O[C@@]3(C)CC[C@H]4[C@H](C)CC[C@@H]1[C@@]24OO3 here
**A:** False

* * *

- System: EBTr
- protocol-summary: Antiviral activity against Bovine viral diarrhea virus Oregon C24V genotype 1 […] infected in bovine EBTr cells assesed as inhibition of virus-induced cytopathic effect at 20 to 100 uM after 72 hrs by MTT assay
- Assay type: functional, cell-based
- assay-context: Bovine viral diarrhea virus strain Oregon C24V
Activity calls are given as the source filed them. No cut-off for these calls is given here.
In this exercise, the only acceptable responses are active, inactive

Here's what some known entries look like.
# molecule, classification
records = [
    ("C[C@H]1[C@@H](OC(=O)C(F)(F)C(F)(F)F)O[C@@H]2O[C@@]3(C)CC[C@H]4[C@H](C)CC[C@@H]1[C@@]24OO3", "active"),
    ("CCCC(CCC)C(=O)O[C@H]1O[C@@H]2O[C@@]3(C)CC[C@H]4[C@H](C)CC[C@@H]([C@H]1C)[C@@]24OO3", "inactive"),
    ("C[C@H]1[C@@H](O)O[C@@H]2O[C@@]3(C)CC[C@H]4[C@H](C)CC[C@@H]1[C@@]24OO3", "active"),
    ("CC1=CO[C@@H]2O[C@]3(C)CC[C@H]4[C@H](C)CC[C@@H]1[C@@]24OO3 [ANHYDRODIHYDROARTEMISININ]", "active"),
    ("CCCC(=O)O[C@H]1O[C@@H]2O[C@@]3(C)CC[C@H]4[C@H](C)CC[C@@H]([C@H]1C)[C@@]24OO3", "active"),
    ("C[C@H]1[C@@H](OC(=O)N(C)C)O[C@@H]2O[C@@]3(C)CC[C@H]4[C@H](C)CC[C@@H]1[C@@]24OO3", "active"),
]

**Q:** # fetch the recorded call for CC(=O)O[C@H]1O[C@@H]2O[C@@]3(C)CC[C@H]4[C@H](C)CC[C@@H]([C@H]1C)[C@@]24OO3 here
**A:** active

**Q:** # fetch the recorded call for C[C@H]1[C@@H](OC(=O)C(C)(C)C)O[C@@H]2O[C@@]3(C)CC[C@H]4[C@H](C)CC[C@@H]1[C@@]24OO3 here
**A:** active

**Q:** # fetch the recorded call for CCC(C)O[C@H]1O[C@@H]2O[C@@]3(C)CC[C@H]4[C@H](C)CC[C@@H]([C@H]1C)[C@@]24OO3 (some centres undefined) here
**A:** active

* * *

- Test system: Bovine viral diarrhea virus strain Oregon C24V
- protocol-summary: Antiviral activity against Bovine viral diarrhea virus Oregon C24V genotype 1 […] assessed as reduction in viral RNA release at 50 uM by RT-PCR analysis
- Assay type: functional
Activity calls are given as the source filed them. No cut-off for these calls is given here.
measured-metric: Activity

Please review the following examples before continuing.
# molecule, measured-target, Activity
data = [
    ("CC(=O)O[C@H]1O[C@@H]2O[C@@]3(C)CC[C@H]4[C@H](C)CC[C@@H]([C@H]1C)[C@@]24OO3", "Bovine viral diarrhea virus strain Oregon C24V", "Active"),
    ("C[C@H]1[C@@H](OC(=O)N(C)C)O[C@@H]2O[C@@]3(C)CC[C@H]4[C@H](C)CC[C@@H]1[C@@]24OO3", "Bovine viral diarrhea virus strain Oregon C24V", "inactive"),
    ("CC1=CO[C@@H]2O[C@]3(C)CC[C@H]4[C@H](C)CC[C@@H]1[C@@]24OO3 [ANHYDRODIHYDROARTEMISININ]", "Bovine viral diarrhea virus strain Oregon C24V", "Active"),
    ("CCCC(=O)O[C@H]1O[C@@H]2O[C@@]3(C)CC[C@H]4[C@H](C)CC[C@@H]([C@H]1C)[C@@]24OO3", "Bovine viral diarrhea virus strain Oregon C24V", "inactive"),
]

**Q:** So what does the record say about Activity for C[C@H]1[C@@H](OC(=O)C(C)(C)C)O[C@@H]2O[C@@]3(C)CC[C@H]4[C@H](C)CC[C@@H]1[C@@]24OO3 ?
**A:** Active

**Q:** So what does the record say about Activity for CCC(C)O[C@H]1O[C@@H]2O[C@@]3(C)CC[C@H]4[C@H](C)CC[C@@H]([C@H]1C)[C@@]24OO3 (stereo partly drawn) ?
**A:** Active

**Q:** So what does the record say about Activity for C[C@H]1[C@@H](O)O[C@@H]2O[C@@]3(C)CC[C@H]4[C@H](C)CC[C@@H]1[C@@]24OO3 [ARTENIMOL] ?
**A:** Active

**Q:** So what does the record say about Activity for CCCC(CCC)C(=O)O[C@H]1O[C@@H]2O[C@@]3(C)CC[C@H]4[C@H](C)CC[C@@H]([C@H]1C)[C@@]24OO3 ?
**A:** Active
